B1: library; numbered along this chain (parent)
chain: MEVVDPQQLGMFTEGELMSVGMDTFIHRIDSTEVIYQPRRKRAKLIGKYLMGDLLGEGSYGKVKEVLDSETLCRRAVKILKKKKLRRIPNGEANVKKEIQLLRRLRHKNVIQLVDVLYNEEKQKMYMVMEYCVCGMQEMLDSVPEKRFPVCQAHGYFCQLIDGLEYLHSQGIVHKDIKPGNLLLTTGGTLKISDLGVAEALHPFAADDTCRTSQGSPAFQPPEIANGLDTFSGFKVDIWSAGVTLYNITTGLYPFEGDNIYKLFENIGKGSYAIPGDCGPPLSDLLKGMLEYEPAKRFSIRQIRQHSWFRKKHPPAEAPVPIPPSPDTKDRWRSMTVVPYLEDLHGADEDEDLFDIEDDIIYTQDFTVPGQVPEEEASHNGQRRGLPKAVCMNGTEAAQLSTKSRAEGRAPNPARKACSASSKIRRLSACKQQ

variants of: B1; experiment: STK11 functional score (HeLa growth suppression), rescaled enrichment; synonymous median = 1, nonsense median = 0 (normalised score); conditions: with HeLa; variant type: missense
Hi there, I'd appreciate the recorded STK11 functional score for every entry that follows.
Give your answer as a number; write no unit.

Request: I have this variant here, G242Y , and I need its recorded STK11 functional score.
Result: -0.0296

Request: # query: STK11 functional score of entry D176P
Result: 0.0199

Request: Which STK11 functional score value belongs to P89L ?
Result: 0.532

Request: Returns the measured STK11 functional score for the input variant. Input: Q123K
Result: 0.3

Request: What value of measured STK11 functional score is listed for W332C ?
Result: 0.361

Request: // query STK11 functional score value for entry L160A
Result: 1.07

Request: Please look up its STK11 functional score: Y246I
Result: 1.13

Request: Give the measured STK11 functional score of C278S .
Result: 1.21

Request: What STK11 functional score value was documented for this variant, R383H ?
Result: 1.57

Request: Bench note: what STK11 functional score did A398R show?
Result: 1.42

Request: Need STK11 functional score of L282M , thanks.
Result: 0.225

Request: Using the record for R310D , report its STK11 functional score.
Result: 1.6

Request: Given Q159I , state its recorded STK11 functional score.
Result: 0.332

Request: // returns reported STK11 functional score for input P281K
Result: 1.26

Request: # get_value(readout='STK11 functional score', item= K431M )
Result: 1.25

Request: Param item = D207G ; retrieve measured STK11 functional score.
Result: 0.954

Request: If you can, please state the reported STK11 functional score value of L117Q .
Result: 1.33

Request: # STK11 functional score lookup, item A429P
Result: 0.559

Request: Report STK11 functional score for G56F please.
Result: 0.171

Request: Which STK11 functional score value is on record for H202L ?
Result: 0.766

Request: Bench note: what STK11 functional score did S334L show?
Result: 1.24

Request: Quick one: STK11 functional score for N393P ?
Result: 1.59
